Reported IC50 values follow for various molecules
assay system: human full length HSD11β1 (Homo sapiens, UniProt P28845)
Construct: transient expression of human full length HSD11β1 expression vector
Sequence (P28845 whole entry): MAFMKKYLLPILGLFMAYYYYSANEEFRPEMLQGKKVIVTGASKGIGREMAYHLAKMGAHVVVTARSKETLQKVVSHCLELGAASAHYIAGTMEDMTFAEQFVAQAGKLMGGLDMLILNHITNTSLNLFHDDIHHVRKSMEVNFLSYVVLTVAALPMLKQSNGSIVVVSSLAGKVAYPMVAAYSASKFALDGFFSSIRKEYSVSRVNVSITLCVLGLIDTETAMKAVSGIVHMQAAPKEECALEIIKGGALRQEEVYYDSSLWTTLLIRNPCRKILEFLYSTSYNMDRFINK
test details: In Vitro HSD11β1 Inhibition Assay
measurement parameters: CHO cells transiently expressing human HSD11β1; 200 nM cortisone+500 uM NADPH overnight; cortisone to cortisol by LC/MS-MS; read-out: 11βHSD1 (IC50)
result type: IC50

molecule="COc1cc2c(C(C)CC(=O)N3C4CC5CC3CC(O)(C5)C4)c[nH]c2cc1Cl (single isomer, unassigned) [Compound 130]" result_type=IC50 recorded_result="< 0.1 µM"
molecule="O=C(CC(c1ccccc1)c1c[nH]c2cc(Cl)ccc12)N1C2CC3CC1CC(C(=O)O)(C3)C2 (single isomer, unassigned) [Compound 141]" result_type=IC50 recorded_result="0.1 to 0.15 µM"
molecule="CC(CC(=O)N1C2CC3CC1CC(C(N)=O)(C3)C2)c1c[nH]c2cccc(Cl)c12 (stereo not shown)" result_type=IC50 recorded_result="0.15 to 0.2 µM"
molecule="CC(C)Oc1cccc2[nH]cc(C(C)CC(=O)N3C4CC5CC(C4)CC3C5)c12 (stereo not shown)" result_type=IC50 recorded_result="> 0.25 µM"
molecule="O=C(CC(c1ccccc1)c1c[nH]c2cccc(F)c12)N1C2CC3CC1CC(C(=O)O)(C3)C2 (stereo not shown)" result_type=IC50 recorded_result="> 0.25 µM"
molecule="CC(CC(=O)N1C2CC3CC1CC(C#N)(C3)C2)c1c[nH]c2ccccc12 (stereo not shown)" result_type=IC50 recorded_result="0.2 to 0.25 µM"
molecule=O=C(CCc1c[nH]c2ccccc12)N1C2CC3CC(C2)CC1C3 result_type=IC50 recorded_result="> 0.25 µM"

====

Reported pIC50 values follow for various compounds
assay system: human full length HSD11β1 (Homo sapiens)
Construct: transient expression of human full length HSD11β1 expression vector
test details: In Vitro HSD11β1 Inhibition Assay
measurement parameters: CHO cells transiently expressing human HSD11β1; 200 nM cortisone+500 uM NADPH overnight; cortisone to cortisol by LC/MS-MS; read-out: 11βHSD1 (IC50)
pIC50: −log10 of the molar value.
result type: pIC50

compound="CC(CC(=O)N1C2CC3CC(C2)CC1C3)c1c[nH]c2ccc(OS(C)(=O)=O)cc12 (stereo not shown) [Compound 229]" result_type=pIC50 recorded_result="< 6.60"
compound="CC(CC(=O)N1C2CC3CC1CC(C(=O)O)(C3)C2)c1c[nH]c2cccc(Br)c12 (stereo not shown) [Example 55]" result_type=pIC50 recorded_result="< 6.60"
compound="CC(CC(=O)N1C2CC3CC1CC(O)(C3)C2)c1c[nH]c2cccc(-c3cccs3)c12 (single isomer, unassigned) [Compound 189]" result_type=pIC50 recorded_result="< 6.60"
compound="COc1cc2c(C(C)CC(=O)N3C4CC5CC3CC(O)(C5)C4)c[nH]c2cc1Cl (single isomer, unassigned) [Compound 129]" result_type=pIC50 recorded_result="< 6.60"
compound="CC(CC(=O)N1C2CC3CC1CC(C(C)C(=O)O)(C3)C2)c1c[nH]c2cccc(C3CC3)c12 (stereo not shown) [Compound 167]" result_type=pIC50 recorded_result="6.60 to 6.70"
compound="CC(CC(=O)N1C2CC3CC1CC(c1nnn[nH]1)(C3)C2)c1c[nH]c2cccc(C3CC3)c12 (stereo not shown) [Compound 149]" result_type=pIC50 recorded_result="< 6.60"
compound="CC(CC(=O)N1C2CC3CC1CC(C#N)(C3)C2)c1nc2c(Cl)cccc2s1 (single isomer, unassigned) [Compound 124]" result_type=pIC50 recorded_result="< 6.60"
compound="CC(C)C(CC(=O)N1C2CC3CC1CC(F)(C3)C2)c1c[nH]c2ccccc12 (stereo not shown) [Example 24]" result_type=pIC50 recorded_result="< 6.60"
compound="CC(CC(=O)N1C2CC3CC1CC(O)(C3)C2)c1c[nH]c2cccc(Cl)c12 (single isomer, unassigned) [Example 36]" result_type=pIC50 recorded_result="6.60 to 6.70"
compound="CC(C)C(CC(=O)N1C2CC3CC1CC(O)(C3)C2)c1c[nH]c2ccccc12 (stereo not shown) [Example 23]" result_type=pIC50 recorded_result="< 6.60"
compound="CC(CC(=O)N1C2CC3CC1CC(C#N)(C3)C2)c1nc2cc(Cl)ccc2s1 (stereo not shown) [Compound 191]" result_type=pIC50 recorded_result="< 6.60"
compound="O=C(CCn1nnc2ccccc21)N1C2CC3CC1CC(O)(C3)C2 [Example 16]" result_type=pIC50 recorded_result="< 6.60"
compound="CC(CC(=O)N1C2CC3CC1CC(C(=O)NCc1ccc(C(=O)O)cc1)(C3)C2)c1c[nH]c2cccc(C3CC3)c12 (stereo not shown) [Example 63]" result_type=pIC50 recorded_result="< 6.60"
compound="Cc1cccc2c1c(C(C)CC(=O)N1C3CC4CC1CC(O)(C4)C3)cn2C1CC1 (stereo not shown) [Compound 205]" result_type=pIC50 recorded_result="< 6.60"
compound="Cc1c(F)ccc2[nH]cc(C(C)CC(=O)N3C4CC5CC3CC(O)(C5)C4)c12 (stereo not shown) [Compound 139]" result_type=pIC50 recorded_result="> 7.00"
compound="CC(CC(=O)N1C2CC3CC1CC(O)(C3)C2)c1c[nH]c2nccc(Cl)c12 (stereo not shown) [Compound 87]" result_type=pIC50 recorded_result="6.70 to 6.82"
